# studyTarget: mouse melanocortin-1 receptor (mouse, UniProt Q01727 1-315)
# Sequence (Q01727 whole entry): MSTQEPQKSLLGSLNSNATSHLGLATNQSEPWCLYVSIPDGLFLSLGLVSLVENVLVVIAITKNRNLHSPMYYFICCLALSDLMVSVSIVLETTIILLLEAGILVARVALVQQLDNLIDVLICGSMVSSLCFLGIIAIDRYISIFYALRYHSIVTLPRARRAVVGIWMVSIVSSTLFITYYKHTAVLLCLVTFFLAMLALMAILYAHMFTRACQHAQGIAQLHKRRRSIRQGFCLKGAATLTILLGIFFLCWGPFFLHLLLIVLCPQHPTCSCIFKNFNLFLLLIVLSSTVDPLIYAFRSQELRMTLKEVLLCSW
# assayExplanation: cell-based or functional assay
Bridges are numbered along the chain shown (N, C = ends). Where no end group is shown, it is not given here. [ ]: non-standard residue; d: D form. Nle = CCCC[C@H](N)C(=O)O; Dap = NC[C@H](N)C(=O)O
reportedProperty: EC50 (agonist) (µM)
Give the quantity in µM, number only.

Solved entries:
{"binder": "YDWR[dF]NAF[Dap]Y-NH2 (lactam 2-9; N-terminus assumed; SMILES C[C@@H]1NC(=O)[C@H](CC(N)=O)NC(=O)[C@@H](Cc2ccccc2)NC(=O)[C@H](CCCNC(=N)N)NC(=O)[C@H](Cc2c[nH]c3ccccc23)NC(=O)[C@@H](NC(=O)[C@@H](N)Cc2ccc(O)cc2)CC(=O)NC[C@@H](C(=O)N[C@@H](Cc2ccc(O)cc2)C(N)=O)NC(=O)[C@H](Cc2ccccc2)NC1=O) [SEQ ID NO:5 (Tyr-c[Asp-Trp-Arg-DPhe-Asn-Ala-Phe-Dpr]-Tyr)]", "reportedProperty": "EC50 (agonist)", "readoutUnit": "µM", "obsValue": 6.12}
{"binder": "YDHXRWNAFXY (Asp-Dpr side chain lactam bridge; Dpr; (pI)DPhe; C-terminal amide (amide resin)) [SEQ ID NO:32 (Tyr-c[Asp-His-(pI)DPhe-Arg-Trp-Asn-Ala-Phe-Dpr]-Tyr)]", "reportedProperty": "EC50 (agonist)", "readoutUnit": "µM", "obsValue": 0.0003}
{"binder": "Ac-[Nle]DHR[dF]FK-NH2 (lactam 2-7) [SEQ ID NO:22 (Ac-Nle-c[Asp-His-Arg-DPhe-Phe-Lys])]", "reportedProperty": "EC50 (agonist)", "readoutUnit": "µM", "obsValue": 0.44}
{"binder": "Ac-SYS[Nle]EHR[dF]FGKPV-NH2 (SMILES CCCC[C@H](NC(=O)[C@H](CO)NC(=O)[C@H](Cc1ccc(O)cc1)NC(=O)[C@H](CO)NC(C)=O)C(=O)N[C@@H](CCC(=O)O)C(=O)N[C@@H](Cc1c[nH]cn1)C(=O)N[C@@H](CCCNC(=N)N)C(=O)N[C@H](Cc1ccccc1)C(=O)N[C@@H](Cc1ccccc1)C(=O)NCC(=O)N[C@@H](CCCCN)C(=O)N1CCC[C@H]1C(=O)N[C@H](C(N)=O)C(C)C) [SEQ ID NO:17 (Ac-Ser-Tyr-Ser-Nle-Glu-His-Arg-DPhe-Phe-Gly-Lys-Pro-Val-NH2)]", "reportedProperty": "EC50 (agonist)", "readoutUnit": "µM", "obsValue": 0.00728}

Next binder, please.
Query string: Need EC50 (agonist), item Ac-SYS[Nle]EHRF[dF]GKPV-NH2 (SMILES CCCC[C@H](NC(=O)[C@H](CO)NC(=O)[C@H](Cc1ccc(O)cc1)NC(=O)[C@H](CO)NC(C)=O)C(=O)N[C@@H](CCC(=O)O)C(=O)N[C@@H](Cc1c[nH]cn1)C(=O)N[C@@H](CCCNC(=N)N)C(=O)N[C@@H](Cc1ccccc1)C(=O)N[C@H](Cc1ccccc1)C(=O)NCC(=O)N[C@@H](CCCCN)C(=O)N1CCC[C@H]1C(=O)N[C@H](C(N)=O)C(C)C) [SEQ ID NO:18 (Ac-Ser-Tyr-Ser-Nle-Glu-His-Arg-Phe-DPhe-Gly-Lys-Pro-Val)]
Result string: 3.63
